Data credit: patent US8410097B2

Quick reference for Ki among some compounds
target: CB1 cannabinoid receptor (Rattus norvegicus, UniProt P20272); construct: membranes were prepared from rat forebrain membranes; from tissue; host or cells: rat forebrain membranes; experiment: biochemical; assay type: binding; details: Receptor Affinities Ki (nM) CB1, Table 8; rat forebrain membranes
Sequence (P20272 whole entry): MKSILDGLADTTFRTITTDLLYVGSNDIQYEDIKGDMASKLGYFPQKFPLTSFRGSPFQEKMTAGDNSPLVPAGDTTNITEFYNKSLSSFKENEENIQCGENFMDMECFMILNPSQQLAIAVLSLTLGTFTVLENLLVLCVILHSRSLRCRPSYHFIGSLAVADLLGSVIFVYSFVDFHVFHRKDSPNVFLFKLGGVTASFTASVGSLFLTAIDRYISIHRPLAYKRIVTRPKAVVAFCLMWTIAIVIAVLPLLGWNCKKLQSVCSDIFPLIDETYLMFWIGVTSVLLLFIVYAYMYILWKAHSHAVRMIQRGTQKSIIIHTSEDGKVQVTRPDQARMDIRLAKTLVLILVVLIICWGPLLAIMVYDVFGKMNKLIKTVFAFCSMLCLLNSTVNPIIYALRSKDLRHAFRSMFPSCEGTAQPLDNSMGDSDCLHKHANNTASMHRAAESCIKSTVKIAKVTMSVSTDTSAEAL
Quantity Kind: Ki (nM)

INSERT INTO measurements (chemical_smiles, quantity_kind, observed_value) VALUES
  ('Cc1c(C(=O)NN2CCCCC2)nn(-c2ccc(Cl)cc2Cl)c1-c1ccc(C#CCN=[N+]=[N-])cc1', 'Ki', 3),
  ('N#CCCC#Cc1ccc(-n2c(-c3ccc(Cl)cc3Cl)nc(C(=O)NN3CCCCC3)c2CO)cc1', 'Ki', 2),
  ('Cc1c(C(=O)N(C)C2CCCCC2)nc(-c2ccc(Cl)cc2Cl)n1-c1ccc(C#CCO)cc1', 'Ki', 27),
  ('O=C(NN1CCCCC1)c1nn(-c2ccc(Cl)cc2Cl)c(-c2ccc(C#CCO)cc2)c1CO', 'Ki', 21);
